Test system: MDA-MB-231 breast
measurement-description: NCI tumour cell line growth inhibition, 48 h; in the data active means GI50 below about 0.43 µM; inactive means the rest
Return exactly one item of active, inactive

Query string: // outcome(item) with item = CC(=O)c1cc2c(c(O)c1C)C(=O)C(=O)c1c(O)cccc1-2
Result string: active

Query string: // outcome(item) with item = Nc1ccn(C2OC(CO)C3[O][Sn]([c]4ccccc4)([c]4ccccc4)[O]C32)c(=O)n1 (stereo not drawn)
Result string: inactive

Query string: // outcome(item) with item = COc1ccc(/C=C/C(=O)c2cccc(B(O)O)c2)cc1O
Result string: inactive

Query string: // outcome(item) with item = CO[C@H](C(=O)[C@@H](O)[C@@H](C)O)[C@@H]1Cc2cc3cc(O[C@H]4C[C@@H](O[C@H]5C[C@@H](O)[C@H](O)C(C)O5)[C@H](O)C(C)(O)O4)cc(O)c3c(O)c2C(=O)[C@H]1O[C@H]1C[C@@H](O[C@H]2C[C@@H](O[C@H]3C[C@@H](OC)[C@H](O)C(C)O3)[C@@H](O)C(C)O2)[C@H](O)C(C)O1 (stereo partly drawn)
Result string: inactive

Query string: // outcome(item) with item = O=C(O)CCCn1c(SCc2c(Cl)cccc2Cl)nc2ccsc2c1=O
Result string: inactive

Query string: // outcome(item) with item = Cc1ccc(C2=C(c3ccc(C)cc3)C3(c4ccc(C)cc4)[C@@H](C#N)[C@H](C#N)C2(c2ccc(C)cc2)S3=O)cc1 (stereo partly drawn)
Result string: inactive

Query string: // outcome(item) with item = O=C1OCC2=C1C(c1cccc(Cl)c1)c1cc3c(cc1N2CCO)OCO3 (stereo not drawn)
Result string: inactive

Query string: // outcome(item) with item = Cc1nc2cc(-n3c(-c4ccc(F)cc4)nc4ccccc4c3=O)ccc2n1Cc1ccccc1
Result string: inactive

Data origin: PubChem BioAssay (NCI)
